Target: CDK2 (Homo sapiens, UniProt P24941)
Construct: purchased Carna Company
Assay: CDK enzymology experiment in vitro, capillary mobility shift assay (MSA)
Format: biochemical
Conditions: read-out: CDK2 (nM) inhibitory IC50
MEASURED ATTRIBUTE: IC50

Some solved cases for reference:
>  <COMPOUND>
C[C@@H]1CN(c2ccc(S(=O)(=O)N3CCC(Nc4ncc(C(F)(F)F)c(O[C@H]5CCOC5)n4)CC3)cn2)C[C@H](C)N1 [Example 117]

>  <MEASURED ATTRIBUTE>
IC50

>  <TEST VALUE>
< 0.5 nM

$$$$
>  <COMPOUND>
Cn1cc(S(=O)(=O)N2CCC(Nc3ncc(C(F)(F)F)c(O[C@H]4CCOC4)n3)C(F)(F)C2)cn1 (stereo partly shown) [Compound 129]

>  <MEASURED ATTRIBUTE>
IC50

>  <TEST VALUE>
2.5 to 10 nM

$$$$
>  <COMPOUND>
Cn1cc(-c2ccc(S(=O)(=O)N3CCC(Nc4ncc(C#N)c(N[C@@H]5CCOC5)n4)CC3)cc2)cn1 [Compound 95]

>  <MEASURED ATTRIBUTE>
IC50

>  <TEST VALUE>
0.5 to 2.5 nM

$$$$

Now turn to the next compound.
Lab entry: CDK2 (Homo sapiens, UniProt P24941) assay, compound Cn1cc(S(=O)(=O)N2CCC(Nc3ncc(C#N)c(C=C4CCCC4)n3)CC2)cn1 [Example 9] , IC50 = 0.5 to 2.5 nM

====

Biological target: CDK2 (Homo sapiens)
Construct: purchased Carna Company
Assay: CDK enzymology experiment in vitro, capillary mobility shift assay (MSA)
Type: biochemical
Settings: read-out: CDK2 (nM) inhibitory IC50
A collection of compounds and their measured IC50

>  <COMPOUND>
O=S(=O)(c1ccc(Br)cc1)N1CCC(Nc2ncc(C(F)(F)F)c(C=C3CCCC3)n2)CC1

>  <IC50>
10 to 50 nM

$$$$
>  <COMPOUND>
Cn1cc(S(=O)(=O)N2CCC(Nc3ncc(C#N)c(N[C@H]4CC[C@@H](O)C4)n3)CC2)cn1 (single isomer, unassigned) [Example 12]

>  <IC50>
2.5 to 10 nM

$$$$
>  <COMPOUND>
O=S(=O)(c1ccc(C2=CCNCC2)cc1)N1CCC(Nc2ncc(C(F)(F)F)c(N[C@H]3CCOC3)n2)CC1

>  <IC50>
0.5 to 2.5 nM

$$$$
>  <COMPOUND>
Cn1cc(S(=O)(=O)N2CCC(Nc3ncc(C#N)c(N[C@H]4CCC[C@@H]4O)n3)CC2)cn1

>  <IC50>
10 to 50 nM

$$$$
>  <COMPOUND>
Cc1cc(S(=O)(=O)N2CCC(Nc3ncc(C(F)(F)F)c(O[C@H]4CCOC4)n3)CC2)ccc1C1=CCNCC1

>  <IC50>
0.5 to 2.5 nM

$$$$

Let us examine a further case.
Note to self: IC50 of Cn1cc(-c2ccc(S(=O)(=O)N3CCC(Nc4ncc(C#N)c(N[C@@H]5CC[C@@H](O)C5)n4)CC3)cc2)cn1 (single isomer, unassigned) with CDK2 (Homo sapiens) was 0.5 to 2.5 nM

====

Below, each entry is listed alongside its reported IC50.
Target: CDK2 (Homo sapiens, UniProt P24941)
Construct: purchased Carna Company
Assay: CDK enzymology experiment in vitro, capillary mobility shift assay (MSA)
Format: biochemical
Conditions: read-out: CDK2 (nM) inhibitory IC50
From the text: CDK1/CDK2/CDK4/CDK6/CDK7/CDK9 were purchased from Carna Company; Carliper substrate CTD3/substrate 18/substrate 8 were purchased from Gil Biochemical Company; Dinaciclib/Palbociclib were purchased from Selleckchem Company; DMSO was purchased from Sigma Company; 384-well plates were purchased from Corning Company. […]

# count of solved cases: 4
>  <MOLECULE>
N#Cc1cnc(NC2CCN(S(=O)(=O)c3ccc(C4=CCNCC4)cc3)CC2)nc1O[C@H]1CCOC1 [Compound 104]

>  <TARGET OF ASSAY>
CDK2 (Homo sapiens, UniProt P24941)

>  <MEASURED ATTRIBUTE>
IC50

>  <TEST VALUE>
0.5 to 2.5 nM

$$$$
>  <MOLECULE>
CN1CC[C@H](Nc2nc(NC3CCN(S(=O)(=O)c4cnn(C)c4)CC3)ncc2C#N)C1 [Compound 72]

>  <TARGET OF ASSAY>
CDK2 (Homo sapiens, UniProt P24941)

>  <MEASURED ATTRIBUTE>
IC50

>  <TEST VALUE>
2.5 to 10 nM

$$$$
>  <MOLECULE>
Nc1ccc(S(=O)(=O)N2CCC(Nc3ncc(C(F)(F)F)c(O[C@H]4CCOC4)n3)CC2)cn1 [Compound 123]

>  <TARGET OF ASSAY>
CDK2 (Homo sapiens, UniProt P24941)

>  <MEASURED ATTRIBUTE>
IC50

>  <TEST VALUE>
< 0.5 nM

$$$$
>  <MOLECULE>
Cn1cc(-c2ccc(S(=O)(=O)N3CCC(Nc4cc(N[C@H]5CCOC5)c(C#N)cn4)CC3)cc2)cn1 [Compound 166]

>  <TARGET OF ASSAY>
CDK2 (Homo sapiens, UniProt P24941)

>  <MEASURED ATTRIBUTE>
IC50

>  <TEST VALUE>
0.5 to 2.5 nM

$$$$

IC50 value, target or system CDK2 (Homo sapiens, UniProt P24941), for Cn1cc(S(=O)(=O)N2CCC(Nc3ncc(C#N)c(O[C@@H]4CCC[C@H]4O)n3)CC2)cn1 (relative stereo) [Compound 68] : 2.5 to 10 nM

Measured IC50 for this entry C[C@@H]1CN(c2ccc(S(=O)(=O)N3CCC(Nc4ncc(C(F)(F)F)c(O[C@H]5CCOC5)n4)CC3)cc2)C[C@H](C)N1 [Example 169] on CDK2 (Homo sapiens, UniProt P24941): < 0.5 nM

Item: N#Cc1cnc(NC2CCN(S(=O)(=O)c3ccc(C4CCNCC4)cc3)CC2)nc1NC1CCCC1(F)F (stereo not shown) [Compound 138] | System: CDK2 (Homo sapiens, UniProt P24941) | IC50: 0.5 to 2.5 nM
